Provide the recorded MIC for the entries that follow.
System: carbapenemase producing K. pneumoniae
runDescription: MIC by broth micro-dilution (CLSI), carbapenemase producing K. pneumoniae
Assay type: cell-based, Klebsiella pneumoniae
recordedConditions: Klebsiella pneumoniae, ATCCBAA1705, KPC-2 K. pneumoniae ATCC BAA-1705; read-out: MIC
Please append the unit to your numeric answer.

Q: What measured MIC is associated with C[C@@H](NC(=O)C(F)F)[C@H]1C(=O)N2C(C(=O)O)=C(S[C@@H]3CN[C@H](C(=O)N4C[C@H](N)[C@@H](N)C4)C3)[C@H](C)[C@H]12 on carbapenemase producing K. pneumoniae?
Ans: 16 µg/mL

Q: What measured MIC is associated with C[C@@H](NC(=O)Cn1cnnn1)[C@H]1C(=O)N2C(C(=O)O)=C(S[C@@H]3CN[C@H](C(=O)N4CCC(N)(CO)CC4)C3)[C@H](C)[C@H]12 on carbapenemase producing K. pneumoniae?
Ans: 2 µg/mL

Q: What measured MIC is associated with C[C@@H](NC(=O)Cn1cnnn1)[C@H]1C(=O)N2C(C(=O)O)=C(S[C@@H]3CN[C@H](C(=O)N4CC5CC(N)CC5C4)C3)[C@H](C)[C@H]12 (stereo partly drawn) on carbapenemase producing K. pneumoniae?
Ans: 1 µg/mL

====

Provide the recorded MIC for the entries that follow.
Test system: carbapenemase producing K. pneumoniae
runDescription: MIC by broth micro-dilution (CLSI), carbapenemase producing K. pneumoniae
Format: cell-based, Klebsiella pneumoniae
recordedConditions: Klebsiella pneumoniae, ATCCBAA1705, KPC-2 K. pneumoniae ATCC BAA-1705; read-out: MIC
Reply with just the number (in µg/mL).

Q: MIC for C[C@@H](NC(=O)Cn1cnnn1)[C@H]1C(=O)N2C(C(=O)O)=C(S[C@@H]3CN[C@H](C(=O)N4CC5CCNC5(CO)C4)C3)[C@H](C)[C@H]12 (single isomer, unassigned) ?
Ans: 1

Q: MIC for C[C@@H](NC(=O)Cn1cnnn1)[C@H]1C(=O)N2C(C(=O)O)=C(S[C@@H]3CN[C@H](C(=O)N4CCC5CNCC54)C3)[C@H](C)[C@H]12 (single isomer, unassigned) ?
Ans: 2

====

System: carbapenemase producing K. pneumoniae
runDescription: MIC by broth micro-dilution (CLSI), carbapenemase producing K. pneumoniae
Format: cell-based, Klebsiella pneumoniae
recordedConditions: Klebsiella pneumoniae, ATCCBAA1705, KPC-2 K. pneumoniae ATCC BAA-1705; read-out: MIC
Provide the recorded MIC for the entries that follow.
Reply with just the number (in µg/mL).

Q: MIC for C[C@@H](NC(=O)C(F)F)[C@H]1C(=O)N2C(C(=O)O)=C(S[C@@H]3CN[C@H](C(=O)N4C[C@@H](N)C[C@H]4CO)C3)[C@H](C)[C@H]12 ?
Ans: 4

Q: MIC for C[C@@H](NC(=O)Cn1cnnn1)[C@H]1C(=O)N2C(C(=O)O)=C(S[C@@H]3CN[C@H](C(=O)N4CC5(CC(N)CO5)C4)C3)[C@H](C)[C@H]12 (single isomer, unassigned) ?
Ans: 1

Q: MIC for C[C@@H](NC(=O)C(F)F)[C@H]1C(=O)N2C(C(=O)O)=C(S[C@@H]3CN[C@H](C(=O)N4CC[C@H](NCC(N)=O)C4)C3)[C@H](C)[C@H]12 ?
Ans: 8

Q: MIC for C[C@@H](NC(=O)C(F)F)[C@H]1C(=O)N2C(C(=O)O)=C(S[C@@H]3CN[C@H](C(=O)NCCC(=O)NOCc4ccccc4)C3)[C@H](C)[C@H]12 ?
Ans: 16

Q: MIC for C[C@@H](NC(=O)C(F)F)[C@H]1C(=O)N2C(C(=O)O)=C(S[C@@H]3CN[C@H](C(=O)N4CC[C@H](N(C)C)C4)C3)[C@H](C)[C@H]12 ?
Ans: 4

Q: MIC for C[C@@H](NC(=O)C(F)F)[C@H]1C(=O)N2C(C(=O)O)=C(S[C@H]3C[C@@H](C(=O)N(C)C)N(C=N)C3)[C@H](C)[C@H]12 ?
Ans: 16

Q: MIC for C[C@@H](NC(=O)Cn1cnnn1)[C@H]1C(=O)N2C(C(=O)O)=C(S[C@@H]3CN[C@H](C(=O)N4CCC(N5CC(O)C5)CC4)C3)[C@H](C)[C@H]12 ?
Ans: 1

Q: MIC for C[C@@H](NC(=O)Cn1cnnn1)[C@H]1C(=O)N2C(C(=O)O)=C(S[C@@H]3CN[C@H](C(=O)N4CCN([C@H]5CCNC5)CC4)C3)[C@H](C)[C@H]12 ?
Ans: 2

Q: MIC for C[C@@H](NC(=O)Cn1cnnn1)[C@H]1C(=O)N2C(C(=O)O)=C(S[C@@H]3CN[C@H](C(=O)N4CCC(C(=O)N5CC[C@@H](N)C5)CC4)C3)[C@H](C)[C@H]12 ?
Ans: 4

Q: MIC for C[C@@H](NC(=O)Cn1cnnn1)[C@H]1C(=O)N2C(C(=O)O)=C(S[C@@H]3CN[C@H](C(=O)N4CCC5CNCC5C4)C3)[C@H](C)[C@H]12 (single isomer, unassigned) ?
Ans: 2

Q: MIC for C[C@@H](NC(=O)Cn1cnnn1)[C@H]1C(=O)N2C(C(=O)O)=C(S[C@@H]3CN[C@H](C(=O)N4CC[C@@H](C(C)(C)N)C4)C3)[C@H](C)[C@H]12 ?
Ans: 2

Q: MIC for C[C@@H](NC(=O)Cn1cnnn1)[C@H]1C(=O)N2C(C(=O)O)=C(S[C@@H]3CN[C@H](C(=O)N4CC5(CCNCC5)C4)C3)[C@H](C)[C@H]12 ?
Ans: 2

Q: MIC for C[C@@H](NC(=O)CC(N)=O)[C@H]1C(=O)N2C(C(=O)O)=C(S[C@@H]3CN[C@H](C(=O)N4CC[C@@H](N)C4)C3)[C@H](C)[C@H]12 ?
Ans: 8

Q: MIC for C[C@@H](NC(=O)Cn1nnnc1C(F)F)[C@H]1C(=O)N2C(C(=O)O)=C(S[C@@H]3CN[C@H](C(=O)N(C)C)C3)[C@H](C)[C@H]12 ?
Ans: 1

Q: MIC for CO/N=C(\C(=O)N[C@H](C)[C@H]1C(=O)N2C(C(=O)O)=C(S[C@@H]3CN[C@H](C(=O)N(C)C)C3)[C@H](C)[C@H]12)c1csc(N)n1 ?
Ans: 64

Q: MIC for C[C@@H](NC(=O)Cn1cnnn1)[C@H]1C(=O)N2C(C(=O)O)=C(Sc3cnn(C[C@@H]4CCNC4)c3)[C@H](C)[C@H]12 ?
Ans: 32

Q: MIC for C[C@@H](NC(=O)C(F)F)[C@H]1C(=O)N2C(C(=O)O)=C(S[C@@H]3CN[C@H](C(=O)N4CC[S+]([O-])CC4)C3)[C@H](C)[C@H]12 ?
Ans: 8

Q: MIC for C[C@@H](NC(=O)C(C)(F)F)[C@H]1C(=O)N2C(C(=O)O)=C(S[C@@H]3CN[C@H](C(=O)N(C)C)C3)[C@H](C)[C@H]12 ?
Ans: 16

Q: MIC for CNCC(=O)N[C@H](C)[C@H]1C(=O)N2C(C(=O)O)=C(S[C@@H]3CN[C@H](C(=O)N4CCC(NC(=O)CN)CC4)C3)[C@H](C)[C@H]12 ?
Ans: 4

Q: MIC for C[C@@H](NC(=O)Cn1cnnn1)[C@H]1C(=O)N2C(C(=O)O)=C(S[C@@H]3CN[C@H](C(=O)N4CC5C[C@H]6C[C@@]5(CN6)C4)C3)[C@H](C)[C@H]12 (some centres unmarked) ?
Ans: 1
